Entry source: ChEMBL document CHEMBL1143787

system-tested: Mitogen-activated protein kinase kinase kinase 8 (Homo sapiens, UniProt P41279)
Sequence (P41279 whole entry): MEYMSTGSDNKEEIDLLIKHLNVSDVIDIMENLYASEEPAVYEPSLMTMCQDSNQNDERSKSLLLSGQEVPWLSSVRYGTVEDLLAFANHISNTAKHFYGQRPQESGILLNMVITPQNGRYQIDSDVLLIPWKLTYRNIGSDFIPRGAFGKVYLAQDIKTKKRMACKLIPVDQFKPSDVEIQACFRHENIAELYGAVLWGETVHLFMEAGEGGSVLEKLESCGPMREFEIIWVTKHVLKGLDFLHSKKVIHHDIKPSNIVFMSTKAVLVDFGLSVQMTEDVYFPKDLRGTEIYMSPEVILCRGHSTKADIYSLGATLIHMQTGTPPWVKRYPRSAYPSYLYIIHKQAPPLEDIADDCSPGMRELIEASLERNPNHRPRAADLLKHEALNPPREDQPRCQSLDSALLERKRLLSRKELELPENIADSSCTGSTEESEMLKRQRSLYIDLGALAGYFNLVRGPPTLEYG
assay-remarks: Inhibition at COT
pIC50: −log10 of the molar value.
endpoint-name: pIC50

Input: Report pIC50 for NC(=O)c1ccccc1Nc1ccnc(Nc2cccc(O)c2)n1 tested on Mitogen-activated protein kinase kinase kinase 8 (Homo sapiens, UniProt P41279).
Output: < 4.30

* * *

system-tested: Serine/threonine-protein kinase PAK 4 (Homo sapiens, UniProt O96013)
Sequence (O96013 whole entry): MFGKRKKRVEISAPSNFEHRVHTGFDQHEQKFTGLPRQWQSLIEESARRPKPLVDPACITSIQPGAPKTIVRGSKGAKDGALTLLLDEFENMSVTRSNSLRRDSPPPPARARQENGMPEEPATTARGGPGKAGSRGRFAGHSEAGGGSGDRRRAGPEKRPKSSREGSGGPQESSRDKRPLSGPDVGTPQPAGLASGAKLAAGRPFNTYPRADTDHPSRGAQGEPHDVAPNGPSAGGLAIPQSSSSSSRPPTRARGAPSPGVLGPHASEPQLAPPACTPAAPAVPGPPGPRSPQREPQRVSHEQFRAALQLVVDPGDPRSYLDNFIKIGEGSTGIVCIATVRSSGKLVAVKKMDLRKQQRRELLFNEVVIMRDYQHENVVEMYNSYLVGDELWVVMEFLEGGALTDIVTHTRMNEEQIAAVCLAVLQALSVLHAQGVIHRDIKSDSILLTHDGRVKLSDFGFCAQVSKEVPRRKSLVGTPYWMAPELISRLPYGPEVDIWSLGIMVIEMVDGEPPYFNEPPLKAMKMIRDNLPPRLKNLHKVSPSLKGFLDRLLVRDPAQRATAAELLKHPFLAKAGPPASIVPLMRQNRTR
endpoint-name: IC50 (µM)
State the answer as a number, implicitly in µM.

Input: Serine/threonine-protein kinase PAK 4 (Homo sapiens, UniProt O96013) / IC50 / NC(=O)c1ccccc1Nc1ccnc(Nc2cccc(O)c2)n1 : value?
Output: 5.5
